Collected set of IC50 measured with 3-phosphoshikimate 1-carboxyvinyltransferase (Escherichia coli K-12, UniProt P0A6D3) across studies.
Sequence (P0A6D3 whole entry): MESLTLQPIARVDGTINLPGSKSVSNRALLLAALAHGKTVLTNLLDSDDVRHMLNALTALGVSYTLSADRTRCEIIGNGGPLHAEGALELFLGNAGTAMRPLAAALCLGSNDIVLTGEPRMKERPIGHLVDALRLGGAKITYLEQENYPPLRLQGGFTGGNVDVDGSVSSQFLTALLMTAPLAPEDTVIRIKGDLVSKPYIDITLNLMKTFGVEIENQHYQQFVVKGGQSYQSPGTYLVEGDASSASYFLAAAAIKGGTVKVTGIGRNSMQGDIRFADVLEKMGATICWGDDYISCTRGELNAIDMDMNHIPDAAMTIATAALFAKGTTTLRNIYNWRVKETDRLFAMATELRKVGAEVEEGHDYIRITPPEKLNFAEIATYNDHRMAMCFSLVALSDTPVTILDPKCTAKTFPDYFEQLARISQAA
property.name: IC50 (mM)

compound | property.name | op | recorded.value
O=C(O)COc1cc(CP(=O)(O)O)cc(C(=O)O)c1 | IC50 | = | 10
O=C(O)C(=O)N[C@@H]1CC(C(=O)O)=C[C@@H](O)[C@H]1O | IC50 | > | 10
O=C(O)c1cc(O)cc(OC(C(=O)O)C(=O)O)c1 | IC50 | = | 10
O=C(O)C1=CC(OC(C(=O)O)C(=O)O)CCC1 (stereo unspecified) | IC50 | = | 15
O=C(O)C1=CC(C(C(=O)O)C(=O)O)CCC1 (stereo unspecified) | IC50 | > | 90
O=C(O)COc1cc(C(=O)O)cc(P(=O)(O)O)c1 | IC50 | = | 10
